- System: Escherichia coli TOP10
- method_summary: shrunken log2 fold change of peptide-encoding DNA abundance (4.5 h post-induction vs induction); higher = less antimicrobial activity (less host growth inhibition)
- test_parameters: time post-induction: 4.5 h; library: site-saturation at positions 5, 18, 19, 20
# if value of shrunken log2 fold change reaches -0.002, tag Y; if it stays below, tag N

Completed entries (count: 5):
RRIRPRPPRLPRPRPRPERYPRP : Y
RRIRSRPPRLPRPRPRPHTFPRP : N
RRIRIRPPRLPRPRPRPKKDPRP : N
RRIRKRPPRLPRPRPRPCHAPRP : Y
RRIRWRPPRLPRPRPRPYNFPRP : N

Ask: Is shrunken log2 fold change for "RRIRTRPPRLPRPRPRPIKQPRP" at or above -0.002?
Reply: N

Ask: Assess whether reported shrunken log2 fold change for "RRIRWRPPRLPRPRPRPITCPRP" sits at -0.002 or higher.
Reply: N

---

- Tested on: Escherichia coli TOP10
- method_summary: shrunken log2 fold change of peptide-encoding DNA abundance (4.5 h post-induction vs induction); higher = less antimicrobial activity (less host growth inhibition)
- test_parameters: time post-induction: 4.5 h; library: site-saturation at positions 5, 18, 19, 20
Classification field: Criterion met = shrunken log2 fold change at or over 0.1; Criterion not met = shrunken log2 fold change under 0.1.

Worked set:
RRIRVRPPRLPRPRPRPHDCPRP : Criterion not met
RRIRKRPPRLPRPRPRPLGEPRP : Criterion met
RRIRTRPPRLPRPRPRPPFFPRP : Criterion met

Ask: Quick check, shrunken log2 fold change >= 0.1? "RRIRTRPPRLPRPRPRPMYQPRP"
Reply: Criterion not met

Ask: State whether the measured shrunken log2 fold change reaches 0.1, counting equality as reaching it, for "RRIRGRPPRLPRPRPRPDLAPRP"
Reply: Criterion met

---

- Tested on: Escherichia coli TOP10;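 further: peptides expressed intracellularly from a pBAD plasmid library in pooled LB shake-flask culture, induced with 0.3% L-arabinose, DNA abundance read by NGS, three biological replicates, DESeq2 with apeglm shrinkage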
- method_summary: shrunken log2 fold change of peptide-encoding DNA abundance (4.5 h post-induction vs induction); higher = less antimicrobial activity (less host growth inhibition)
- test_parameters: time post-induction: 4.5 h; library: site-saturation at positions 5, 18, 19, 20
shrunken log2 fold change by entry:

These recorded examples may help you get a feel for the data.
RRIRTRPPRLPRPRPRPIQGPRP : -0.0537
RRIRVRPPRLPRPRPRPCCAPRP : 0.151
RRIRGRPPRLPRPRPRPMYMPRP : -0.169
RRIRTRPPRLPRPRPRPCCCPRP : 0.276
RRIRNRPPRLPRPRPRPACLPRP : 0.146

Ask: Form field: reported shrunken log2 fold change of "RRIRSRPPRLPRPRPRPETVPRP"
Reply: 0.211

Ask: May I ask what shrunken log2 fold change has been recorded for "RRIRRRPPRLPRPRPRPMVAPRP" ?
Reply: 0.363

Ask: Which shrunken log2 fold change is reported for this sequence? "RRIRKRPPRLPRPRPRPDERPRP"
Reply: -0.00101

Ask: Name the recorded shrunken log2 fold change for "RRIRARPPRLPRPRPRPEHNPRP" .
Reply: -0.0925

Ask: # get_value(readout='shrunken log2 fold change', item= "RRIRSRPPRLPRPRPRPMNCPRP" )
Reply: -0.0191

Ask: Return reported shrunken log2 fold change; argument: "RRIRSRPPRLPRPRPRPFSSPRP"
Reply: -0.113

Ask: Endpoint output: shrunken log2 fold change of "RRIRFRPPRLPRPRPRPKICPRP" . Value?
Reply: -0.0416

Ask: Need shrunken log2 fold change of "RRIRYRPPRLPRPRPRPYEPPRP" , thanks.
Reply: -0.248

Ask: If you can, please state the reported shrunken log2 fold change value of "RRIRTRPPRLPRPRPRPFEFPRP" .
Reply: -0.508

Ask: Returns the measured shrunken log2 fold change for the input sequence. Input: "RRIRFRPPRLPRPRPRPLWIPRP"
Reply: -0.624
